// reported Off-Flavor Intensity for each item listed
ASSAY METHOD TEXT: Sensory evaluation of aqueous solution V containing 1-octen-3-ol 10 ppb: off-flavor intensity and masking component intensity
CONDITION: 10 ppb added, 1-octen-3-ol 10 ppb, average score 0-4
METRIC NAME: Off-Flavor Intensity (points)

[[record]]
compound = "CCC(=O)/C=C/C1C(C)=CCCC1(C)C (stereo not drawn) [α-Methyl Ionone, α-methyl ionone]"
measured_value = 0.8

[[record]]
compound = "O=C1CCCCCCCCCCCC(=O)OCCO1 [1,4-Dioxacycloheptadecan-5,17-Dione, 1,4-dioxacycloheptadecan-5,17-dione]"
measured_value = 1.4

[[record]]
compound = "CC(=O)/C=C/C1=C(C)CCCC1(C)C [β-Ionone, β-ionone]"
measured_value = 1.4

[[record]]
compound = "C=CC(C)(CCC=C(C)C)OC(=O)CCC (stereo not drawn) [Linalyl Butyrate, linalyl butyrate]"
measured_value = 2.3

[[record]]
compound = "C/C=C/C(=O)C1=C(C)C=CCC1(C)C [β-Damascenone, β-damascenone]"
measured_value = 1.1

[[record]]
compound = "CCCCCCCC/C=C\\CCCCCCCC(=O)O [Oleic Acid, oleic acid]"
measured_value = 3.4

[[record]]
compound = "C=C(C)[C@@H]1CCC2=CC(=O)C[C@@H](C)[C@]2(C)C1 [Nootkatone, nootkatone]"
measured_value = 2.5

[[record]]
compound = "CCCC(=O)C(C)=O [2,3-Hexanedione, 2,3-hexanedione]"
measured_value = 2.5

[[record]]
compound = "CC(=O)/C=C/C1C(C)=CCCC1(C)C (stereo not drawn) [α-Ionone, α-ionone]"
measured_value = 1.5

